- System: SNB-19 CNS
- run.description: NCI tumour cell line growth inhibition, 48 h
property: GI50

# compound, experimental.target, measurement
data = [
    ("CC(=O)/C=C/c1ccc(C#Cc2ccccc2)s1", "SNB-19 CNS", "12.7 µM"),
    ("CCc1ccccc1NC(=O)c1sc2nc3c(cc2c1N)C(=O)CCC3", "SNB-19 CNS", "0.801 µM"),
    ("C=C1C(=O)O[C@H]2[C@H]1CC/C(COC(=O)c1ccc(Cl)nc1)=C\\CC[C@@]1(C)O[C@@H]21", "SNB-19 CNS", "7.55 µM"),
]

====

- System: EKVX NSCLC
- run.description: NCI tumour cell line growth inhibition, 48 h

# molecule, TGI
measured = [
    ("COc1ccc2c(c1)[C@@]13CCCC[C@H]1[C@@H](C2)N(C)CC3=O", "43.4 µM"),
    ("CC1CCOc2ccc(cc2)C=Nc2ccc(cc2)CCc2ccc(cc2)N=Cc2ccc(cc2)OCC1 (stereo not given)", "> 100 µM"),
    ("CC(=O)O[C@H]1C#C/C=C\\C#CC[C@@H]2C(=O)N[C@@H]12", "> 100 µM"),
    ("CC(=O)/C=C/c1ccc(C#Cc2ccccc2)s1", "31.6 µM"),
    ("CCOC(=O)c1c[nH]c2oc(/C=N/N3CC(CN4CCOCC4)OC3=O)cc2c1=O (stereo not given)", "> 100 µM"),
]

====

- Test system: NCI-H23 lung
- run.description: NCI tumour cell line growth inhibition, 48 h

# molecule, experimental.target, TGI
data = [
    ("COC(=O)OCC1OC(N2C(=O)NC(=O)C(Br)C2N=[N+]=[N-])CC1OC(=O)OC (stereo not given)", "NCI-H23 lung", "> 100 µM"),
    ("CCOC(=O)c1c[nH]c2oc(/C=N/N3CC(CN4CCOCC4)OC3=O)cc2c1=O (stereo not given)", "NCI-H23 lung", "> 100 µM"),
    ("NC(N)=NCCCCCNc1noc(Cc2c[nH]c3cc(Br)ccc23)n1", "NCI-H23 lung", "28.7 µM"),
    ("COc1ccc(/C(Cl)=C(\\C=O)c2ccc(F)cc2)cc1OC", "NCI-H23 lung", "66.6 µM"),
    ("O=C(O)CC[N+]1=CCC(c2ccccc2)(c2ccccc2)O1", "NCI-H23 lung", "> 100 µM"),
    ("C=C1C[C@]23CCC4C(C)(C)C(=O)CC[C@]4(C)C2C[C@H]1C(O)C3=O (stereo not given in full)", "NCI-H23 lung", "> 75 µM"),
    ("C1CNCCNCCN1", "NCI-H23 lung", "> 100 µM"),
    ("NC1=NS(=O)(=O)Nc2nc(-c3ccc([N+](=O)[O-])cc3)[nH]c21", "NCI-H23 lung", "> 100 µM"),
    ("CCn1nc2c3c(ncn3C(C)(C)O2)c1=O", "NCI-H23 lung", "> 100 µM"),
    ("CC1=NN(C(=O)CC(=O)N(C(=O)c2ccccc2Cl)c2ccc(C)cc2)C(=O)C1N=Nc1ccc([N+](=O)[O-])cc1 (stereo not given)", "NCI-H23 lung", "> 100 µM"),
]

====

- System: OVCAR-5 ovarian
- run.description: NCI tumour cell line growth inhibition, 48 h
Below is a list of entries, each paired with its recorded TGI value.

# molecule, TGI
records = [
    ("COc1ccc(-c2c[nH]c(=S)n2-c2ccc(OC)cc2)cc1", "> 50 µM"),
    ("C[C@H](N)C(=O)Nc1ccc(-c2nc3ccccc3s2)cc1", "43.6 µM"),
    ("Cc1cc(C)[n+](CCOc2ccc(/C(=C(/Cl)c3ccccc3)c3ccccc3)cc2)c(C)c1", "12.4 µM"),
    ("O=C1c2ccc3c4ccccc4n(Cc4ccccc4)c3c2C(=O)N1c1ccccc1", "33 µM"),
    ("CCC1(C)N=C(c2cnccn2)NN1c1ccc(Cl)cc1 (stereo not drawn)", "> 100 µM"),
    ("COc1cccc(/C(COc2ccc3c(c2)oc(=O)c2cc(OC)ccc23)=N/O)c1", "> 100 µM"),
    ("CN(NC(=O)c1cccs1)C1=NCCCN1", "> 100 µM"),
    ("OCC1OC(n2cnc3c(Cl)nc(Nc4ccccc4)nc32)CC1O (stereo not drawn)", "> 100 µM"),
    ("Nc1nc(CCl)nc(Nc2ccccc2)n1", "43.4 µM"),
    ("COc1ccc(Nc2nc(NS(=O)(=O)c3cc(C)c(Cl)cc3S)n[nH]2)cc1", "> 100 µM"),
    ("CC1(CF)SCc2nc3ccccc3n21 (stereo not drawn)", "> 100 µM"),
    ("Cc1ccn2c(=O)cc(-c3ccccc3)nc2c1", "> 100 µM"),
    ("O=C1[C@H]2ON(c3ccccc3)C(c3ccc(Cl)cc3)[C@H]2C(=O)N1c1ccc(Cc2ccc(N3C(=O)[C@@H]4ON(c5ccccc5)C(c5ccc(Cl)cc5)[C@@H]4C3=O)cc2)cc1 (stereo partly drawn)", "> 100 µM"),
    ("CCOC(=O)CNC(=O)c1ccccc1Nc1ccnc(C(F)(F)F)c1", "> 100 µM"),
    ("COc1cc(C2=C(c3cn(C)c4ccccc34)COC2=O)cc(OC)c1OC", "> 100 µM"),
    ("Cc1c(C2=C(Br)C(=O)N(C)C2=O)c(=O)n(C)c(=O)n1C", "> 100 µM"),
    ("O=C1Nc2c(ccc(Cl)c2I)C1=O", "34.3 µM"),
    ("COC(=O)/C(C=O)=C/Sc1ccccc1", "93.8 µM"),
    ("COc1ccc(/C=N/N=C(\\N)NO)c(O)c1", "> 10 µM"),
    ("COc1ccc(O)cc1", "> 100 µM"),
    ("CN(C)Cc1cc(C(=O)/C=C/c2ccccc2Cl)cc(CN(C)C)c1O", "40.2 µM"),
    ("Oc1cc(C2OCCCO2)cc(O)c1O", "> 100 µM"),
    ("CC1=NN(c2ccc(S(=O)(=O)O)cc2)C2(C1)SCC(=O)N2c1nc2ccccc2s1 (stereo not drawn)", "> 100 µM"),
]

====

- System: TK-10 renal
- run.description: NCI tumour cell line growth inhibition, 48 h
Below is a list of entries, each paired with its recorded TGI value.
property: TGI

# compound, experimental.target, property, measurement
measured = [
    ("CC1=COC(C)(C=C(C#N)C#N)CC1 (stereo unspecified)", "TK-10 renal", "TGI", "> 100 µM"),
    ("C[C@]12CC[C@H](O)C[C@H]1CC[C@@H]1[C@@H]2CC[C@]2(C)[C@@H](C3=CC(=O)OC3)CC[C@]12O", "TK-10 renal", "TGI", "1.59 µM"),
    ("Cc1ccc(-c2cc(N)n(-c3nc4c(c(=O)n(C)c(=O)n4C)n3C)n2)cc1", "TK-10 renal", "TGI", "> 100 µM"),
    ("O=C(NCCCCCCNCc1cccc2ccccc12)Nc1cccc2ccccc12", "TK-10 renal", "TGI", "> 100 µM"),
    ("CN(C)Cc1cc(C(=O)/C=C/c2ccccc2Cl)cc(CN(C)C)c1O", "TK-10 renal", "TGI", "34.9 µM"),
    ("CCOC(=O)/C=C(/C(=O)OCC)n1ccc(N)nc1=O", "TK-10 renal", "TGI", "> 100 µM"),
    ("O=C1OC2(OC2c2ccccc2)c2ccccc21 (stereo unspecified)", "TK-10 renal", "TGI", "> 100 µM"),
    ("Cc1cc(I)cc(CN(C)CCCN2CCOCC2)c1O", "TK-10 renal", "TGI", "> 100 µM"),
    ("CN(NC(=O)c1cccs1)C1=NCCCN1", "TK-10 renal", "TGI", "> 100 µM"),
    ("c1cc2nnnn2nc1N1CCCC1", "TK-10 renal", "TGI", "> 100 µM"),
    ("C[n+]1cc(C(O)c2ccc3c(c2)OCO3)c2ccccc2c1 (stereo unspecified)", "TK-10 renal", "TGI", "> 100 µM"),
]

====

- System: LOX IMVI melanoma
- run.description: NCI tumour cell line growth inhibition, 48 h
property: TGI

# compound, measurement
data = [
    ("COC(=O)CCC(=O)CC1CC(=O)C2CCCN12 (stereo not drawn)", "> 100 µM"),
    ("CC1(CF)SCc2nc3ccccc3n21 (stereo not drawn)", "> 100 µM"),
    ("Cc1cc(S(=O)(=O)N/N=C(\\Sc2cc(Cl)c(C)cc2S(N)(=O)=O)c2ccc(Cl)cc2)c(Cl)cc1Cl", "99.6 µM"),
    ("C=C1C[C@]23CCC4C(C)(C)C(=O)CC[C@]4(C)C2C[C@H]1C(O)C3=O (stereo partly drawn)", "> 75 µM"),
    ("CCC(C#N)NC(=O)NC(C#N)CC (stereo not drawn)", "> 100 µM"),
    ("C=C1C(=O)O[C@H]2[C@H]1CC/C(COC(=O)c1ccc(Cl)nc1)=C\\CC[C@@]1(C)O[C@@H]21", "3.33 µM"),
    ("CC(=O)Nc1cc2c(s1)CCC1CC(=O)NN=C21 (stereo not drawn)", "> 100 µM"),
    ("COC(=O)N/N=C(\\C)C(CN1CCCCC1)C(C1=C(O)c2ccccc2OC1)c1ccccc1 (stereo not drawn)", "> 100 µM"),
    ("O=C(NCCCCCCNCc1cccc2ccccc12)Nc1cccc2ccccc12", "> 100 µM"),
    ("CCOC(=O)CNC(=O)c1ccccc1Nc1ccnc(C(F)(F)F)c1", "36.2 µM"),
    ("Cc1cc(NS(=O)(=O)c2ccc(Nc3c4ccccc4nc4c(C(=O)NCCN(C)C)cccc34)cc2)no1", "31.3 µM"),
    ("CC(=O)O[C@H]1C#C/C=C\\C#CC[C@@H]2C(=O)N[C@@H]12", "> 50.2 µM"),
    ("OCC1OC(n2cnc3c(Cl)nc(Nc4ccccc4)nc32)CC1O (stereo not drawn)", "36.5 µM"),
    ("COC(=O)C1=CC(=O)OC1(OO)c1ccccc1 (stereo not drawn)", "> 100 µM"),
    ("Cc1ccc(S(=O)(=O)OCC(=O)O)cc1", "> 100 µM"),
    ("CCOC(=N)CC(=O)Nc1cccc(C)c1C", "> 100 µM"),
    ("COCCOc1cnc2ccn([C@H](C)c3nnc4c(F)cc(-c5cnn(C)c5)cn34)c(=O)c2c1", "> 100 µM"),
    ("NC(=O)NNC(=O)c1nc[nH]c1[N+](=O)[O-]", "> 100 µM"),
    ("O=[N+]([O-])c1ccc2c(c1)C(c1ccccc1Cl)=Nc1cn[nH]c1N2", "> 25 µM"),
    ("CCCSc1ccc2[nH]c(/N=C/c3ccco3)cc2c1", "> 100 µM"),
    ("COC(=O)/C(C)=C/[N+](=O)[O-]", "38.9 µM"),
    ("CC1(C)O/C(=C\\c2ccccc2)C(=O)/C(=C/c2ccccc2)O1", "> 100 µM"),
    ("CC(C)CNC(=O)O", "> 100 µM"),
]
